target.system: IRAK4 (Homo sapiens, UniProt Q9NWZ3)
Sequence (Q9NWZ3 1-460): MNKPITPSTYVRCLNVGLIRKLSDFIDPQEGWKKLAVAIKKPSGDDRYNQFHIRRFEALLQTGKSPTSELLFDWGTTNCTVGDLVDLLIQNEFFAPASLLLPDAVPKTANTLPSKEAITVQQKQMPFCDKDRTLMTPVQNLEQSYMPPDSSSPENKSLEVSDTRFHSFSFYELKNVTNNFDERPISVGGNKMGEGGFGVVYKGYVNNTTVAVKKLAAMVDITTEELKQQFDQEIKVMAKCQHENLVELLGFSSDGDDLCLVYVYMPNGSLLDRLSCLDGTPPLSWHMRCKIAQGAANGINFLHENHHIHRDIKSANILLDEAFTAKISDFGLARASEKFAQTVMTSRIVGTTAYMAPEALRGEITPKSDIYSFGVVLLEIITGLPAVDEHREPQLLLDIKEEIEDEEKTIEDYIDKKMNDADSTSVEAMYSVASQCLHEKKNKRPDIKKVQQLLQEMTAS
assay.name: Hibit fluorescence detection of proteolysis (IRAK4-HiBiT in HEK293T cells)
Format: cell-based
Design: host or cells: HEK293T (ATCC)
condition.description: HEK-293T
Structures can show the parent of a compound that is named as a salt.
readout.kind: Dmax

Cn1c(=O)n(C2CCC(=O)NC2=O)c2cccc(N[C@H]3CC[C@H](N(C)C[C@H]4CC[C@H](n5cc(-n6cc(-c7cnn8ccc(N9CCC[C@H](N)C9)nc78)nn6)c(C(F)F)n5)CC4)CC3)c21 (stereo partly shown) [Example 118]	> 80%
Cn1c(=O)n(C2CCC(=O)NC2=O)c2cccc(N3CCC4(CCN(C[C@H]5CC[C@H](n6cc(-n7cc(-c8cnn9ccc(NCCC(C)(C)O)nc89)nn7)c(C(F)F)n6)CC5)C4)CC3)c21 (stereo partly shown) [Example 134]	> 80%
C[C@H]1CN(c2cccc3c2n(C)c(=O)n3C2CCC(=O)NC2=O)CCN1C[C@H]1CC[C@H](n2cc(-n3cc(-c4cnn5ccc(N6CCC[C@H](N)C6)nc45)nn3)c(C(F)F)n2)CC1 (stereo partly shown) [Example 285]	> 80%
Cn1c(=O)n(C2CCC(=O)NC2=O)c2cccc(N3CCC4(CCN(C[C@H]5CC[C@H](n6cc(-n7cc(-c8cnn9cc(C#N)cnc89)nn7)c(C(F)F)n6)CC5)CC4)CC3)c21 (stereo partly shown) [Compound 199]	60 to 70%
Cn1c(=O)n(C2CCC(=O)NC2=O)c2cccc(N3CCN(C[C@H]4CC[C@H](n5cc(-n6cc(-c7cnn8ccc(N9CCNCC9)nc78)nn6)c(C(F)F)n5)CC4)CC3)c21 (stereo partly shown) [Example 132, dihydrochloride]	> 80%
Cn1c(=O)n(C2CCC(=O)NC2=O)c2cccc(N3CCN(C[C@H]4CC[C@H](n5cc(-n6cc(-c7ccc8cc(C(N)=O)cnn78)nn6)c(C(F)F)n5)CC4)CC3)c21 (stereo partly shown) [Example 57]	70 to 80%

Req: GET /values?readout=Dmax&item= Cn1c(=O)n(C2CCC(=O)NC2=O)c2cccc(N3CCN(C4CCN(C[C@H]5CC[C@H](n6cc(-n7cc(-c8cnn9ccc(N[C@@H]%10CCCC[C@@H]%10O)nc89)nn7)c(C(F)F)n6)CC5)CC4)CC3)c21 (stereo partly shown) [Example 153]
Resp: > 80%

Req: GET /values?readout=Dmax&item= Cn1c(=O)n(C2CCC(=O)NC2=O)c2cccc(N3CCC4(CCN(C[C@H]5CC[C@H](n6cc(-n7cc(-c8cnn9ccc(N%10CCC[C@H](O)C%10)nc89)nn7)c(C(F)F)n6)CC5)CC4)C3)c21 (stereo partly shown) [Example 143]
Resp: > 80%

Req: GET /values?readout=Dmax&item= Cn1c(=O)n(C2CCC(=O)NC2=O)c2cccc(N3CCC4(CCN(C[C@H]5CC[C@H](n6cc(-n7cc(-c8cnn9ccc(N%10CCC(O)CC%10)nc89)nn7)c(C(F)F)n6)CC5)C4)CC3)c21 (stereo partly shown) [Example 139]
Resp: > 80%

Req: GET /values?readout=Dmax&item= Cn1c(=O)n(C2CCC(=O)NC2=O)c2cccc(N3CCC4(CCN(C[C@H]5CC[C@H](n6cc(-n7cc(-c8cnn9ccc(N%10CCC(C)(O)CC%10)nc89)nn7)c(C(F)F)n6)CC5)CC4)CC3)c21 (stereo partly shown) [Example 121]
Resp: > 80%

Req: GET /values?readout=Dmax&item= Cn1c(=O)n(C2CCC(=O)NC2=O)c2cccc(NC[C@H]3CC[C@H](N(C)C[C@H]4CC[C@H](n5cc(-n6cc(-c7cnn8ccc(N9CCOCC9)nc78)nn6)c(C(F)F)n5)CC4)CC3)c21 (stereo partly shown) [Example 24]
Resp: < 60%

Req: GET /values?readout=Dmax&item= Cn1c(=O)n(C2CCC(=O)NC2=O)c2cccc(NC(=O)C3CCN(C[C@H]4CC[C@H](n5cc(-n6cc(-c7ccc8cc(C(N)=O)cnn78)nn6)c(C(F)F)n5)CC4)CC3)c21 (stereo partly shown) [Example 69]
Resp: > 80%

Req: GET /values?readout=Dmax&item= Cn1c(=O)n(C2CCC(=O)NC2=O)c2cccc(N3CCC4(CCN(C[C@H]5CC[C@H](n6cc(-n7cc(-c8cnn9ccc(NCCC(C)(C)O)nc89)nn7)c(C(F)F)n6)CC5)CC4)C3)c21 (stereo partly shown) [Compound 240]
Resp: > 80%
